Catalogue of residual activity values
test-system: UniProt P36888
Sequence (P36888 whole entry, looked up): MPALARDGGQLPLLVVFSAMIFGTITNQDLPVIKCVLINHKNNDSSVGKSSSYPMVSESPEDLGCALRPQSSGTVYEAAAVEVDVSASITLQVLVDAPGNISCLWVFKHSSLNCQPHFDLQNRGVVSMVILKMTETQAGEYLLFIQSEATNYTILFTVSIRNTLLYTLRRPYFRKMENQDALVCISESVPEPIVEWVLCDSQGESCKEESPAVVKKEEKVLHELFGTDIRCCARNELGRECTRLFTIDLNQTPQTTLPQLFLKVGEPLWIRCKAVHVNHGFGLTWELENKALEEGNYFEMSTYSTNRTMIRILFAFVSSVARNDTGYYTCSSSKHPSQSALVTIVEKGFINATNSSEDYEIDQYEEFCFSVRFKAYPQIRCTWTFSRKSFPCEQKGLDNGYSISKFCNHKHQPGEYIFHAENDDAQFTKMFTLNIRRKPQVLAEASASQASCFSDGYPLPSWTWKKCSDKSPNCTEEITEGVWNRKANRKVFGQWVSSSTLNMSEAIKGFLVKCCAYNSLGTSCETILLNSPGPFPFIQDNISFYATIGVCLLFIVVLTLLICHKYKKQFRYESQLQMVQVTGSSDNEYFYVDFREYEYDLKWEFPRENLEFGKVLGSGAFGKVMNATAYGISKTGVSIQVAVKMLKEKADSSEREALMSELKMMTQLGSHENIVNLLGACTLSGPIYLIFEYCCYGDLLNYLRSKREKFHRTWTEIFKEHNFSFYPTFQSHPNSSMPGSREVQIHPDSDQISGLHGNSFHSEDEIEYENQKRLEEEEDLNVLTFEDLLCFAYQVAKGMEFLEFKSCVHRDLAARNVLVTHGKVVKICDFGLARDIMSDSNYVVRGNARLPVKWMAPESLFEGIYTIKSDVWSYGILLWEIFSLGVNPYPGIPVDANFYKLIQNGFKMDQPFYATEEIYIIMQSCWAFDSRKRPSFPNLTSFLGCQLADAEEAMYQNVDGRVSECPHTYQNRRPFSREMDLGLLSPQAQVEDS
test-details: radiometric filter-binding kinase assay, Kinase HotSpot
experimental-conditions: compound 0.5 µM; ATP 10 µM
All answers are understood in %, so give the number only.

Below: 3 molecules and their reported residual activity.
compound-smiles: CN(C)S(=O)(=O)c1ccc2c(c1)/C(=C/c1cc3c([nH]1)CCCC3)C(=O)N2
test-system: UniProt P36888
units-of-measure: %
residual activity: 10.2

compound-smiles: Fc1ccc(-c2nc3n(c2-c2ccncc2)CCS3)cc1
test-system: UniProt P36888
units-of-measure: %
residual activity: 94.7

compound-smiles: Cn1c2ccccc2c2c3c(c4c5ccccc5n(CCC#N)c4c21)CNC3=O
test-system: UniProt P36888
units-of-measure: %
residual activity: 5.27

Query :: Please look up its residual activity: O=C(c1cc2cc(O)ccc2[nH]1)c1cc2cc(O)ccc2[nH]1
Result :: 3.53

Query :: Same for COc1ccc(Cl)cc1NC(=O)Nc1cc(C)nc2ccccc12
Result :: 94.4

Query :: Proceed to COc1ccc2c(c1)c(C1=C(c3c[nH]c4ccccc34)C(=O)NC1=O)cn2CCCN(C)C
Result :: 23.2

Query :: Subsequent entry: COc1ccc2c(c1)/C(=C/c1cnc[nH]1)C(O)=N2
Result :: 9.29

Query :: Now give it for CCCCc1c(-c2ccc(OC)cc2)[nH]c2nccnc12 too.
Result :: 47.8

Query :: Now this one: O=C1NC(=O)c2c1c1c3ccccc3[nH]c1n1cncc21
Result :: 9.86

###

test-system: TYK2 JH1 catalytic (human)
test-details: radiometric filter-binding kinase assay, Kinase HotSpot
experimental-conditions: compound 0.5 µM; ATP 10 µM
Recorded measurements of residual activity, one per entry
Provide the reading as a plain figure in %.

Take a look at these entries with their results.
compound-smiles: O=C1NC(=O)c2c1c1c3ccccc3[nH]c1n1cncc21
result-number: 85.4
--
compound-smiles: O=C1C(Cl)=C(N2C(=O)CCC2=O)C(=O)c2ccccc21
result-number: 102
--
compound-smiles: COc1cc2ncnc(Nc3ccc(Oc4ccccc4)cc3)c2cc1OC
result-number: 107
--
compound-smiles: CO[C@@H]1[C@H](N(C)C(=O)c2ccccc2)C[C@H]2O[C@]1(C)n1c3ccccc3c3c4c(c5c6ccccc6n2c5c31)C(=O)NC4
result-number: 8.26
--
compound-smiles: O=C1c2ccccc2-c2nc3nnnn3nc21
result-number: 77.2
--
compound-smiles: COc1cc2ncnc(Nc3ccc(OCc4ccccc4)cc3)c2cc1OC
result-number: 103
--
compound-smiles: Cc1nc(-c2ccccc2)c(-c2ccncc2)o1
result-number: 109
--
compound-smiles: CN(C)S(=O)(=O)c1ccc2c(c1)/C(=C/c1cc3c([nH]1)CCCC3)C(=O)N2
result-number: 11.4
--
compound-smiles: CCCCc1c(-c2ccc(OC)cc2)[nH]c2nccnc12
result-number: 38.8

Query :: // returns reported residual activity for input COc1ccc2c(c1)c(C1=C(c3c[nH]c4ccccc34)C(=O)NC1=O)cn2CCCN(C)C
Result :: 126

###

The compounds listed here are annotated with their residual activity.
test-system: MAPK8 (human) (UniProt P45983)
Sequence (P45983 whole entry, looked up): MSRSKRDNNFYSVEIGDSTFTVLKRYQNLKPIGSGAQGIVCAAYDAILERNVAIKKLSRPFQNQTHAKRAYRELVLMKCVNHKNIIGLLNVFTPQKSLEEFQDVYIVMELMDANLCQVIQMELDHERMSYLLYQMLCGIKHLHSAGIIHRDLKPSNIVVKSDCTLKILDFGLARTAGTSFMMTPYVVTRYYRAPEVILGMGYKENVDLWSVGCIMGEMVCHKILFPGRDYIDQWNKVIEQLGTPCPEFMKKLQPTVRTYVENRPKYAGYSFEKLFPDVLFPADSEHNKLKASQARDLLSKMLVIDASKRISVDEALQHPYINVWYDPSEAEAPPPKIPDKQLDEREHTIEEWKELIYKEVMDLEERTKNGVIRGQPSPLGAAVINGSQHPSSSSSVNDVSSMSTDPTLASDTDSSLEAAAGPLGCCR
test-details: radiometric filter-binding kinase assay, Kinase HotSpot
experimental-conditions: compound 0.5 µM; ATP 10 µM
Return type: number; implicit unit %.

compound-smiles: CS(=O)(=O)CCNCc1ccc(-c2ccc3ncnc(Nc4ccc(OCc5cccc(F)c5)c(Cl)c4)c3c2)o1
units-of-measure: %
residual activity: 91.9
--
compound-smiles: O=C1C(Cl)=C(N2C(=O)CCC2=O)C(=O)c2ccccc21
units-of-measure: %
residual activity: 122

Query :: For Cn1c2ccccc2c2c3c(c4c5ccccc5n(CCC#N)c4c21)CNC3=O , what is its reported residual activity?
Result :: 78.7

Query :: Further, for COc1cc(Nc2c(C#N)cnc3cc(OCCCN4CCN(C)CC4)c(OC)cc23)c(Cl)cc1Cl ?
Result :: 105

Query :: // same read-out, input: COc1ccc(Cl)cc1NC(=O)Nc1cc(C)nc2ccccc12
Result :: 104
